Measured IC50, listed per entry for reference.
Test system: ASPC1
Assay: cells
Type: functional, cell-based, Homo sapiens
Recorded Conditions: Homo sapiens, ASPC1
Description: SANGER: Inhibition of human AsPC-1 cell growth in a cell viability assay.
Structures can show the parent of a compound that is named as a salt.
Write down the numeric answer in µM and omit the unit.

Worked set:
- Compound: "CN(C)C(=N)NC(=N)N"
  Measure: "IC50"
  Result Number: 5370
- Compound: "COC1=CC(c2cc3ccccc3[nH]2)=N/C1=C\\c1[nH]c(C)cc1C [OBATOCLAX MESYLATE]"
  Measure: "IC50"
  Result Number: 7.49

Now consider the entry below.
Problem: Which measured IC50 belongs to Cn1cnc2c(F)c(Nc3ccc(Br)cc3Cl)c(C(=O)NOCCO)cc21 , tested on ASPC1?;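 also: growth inhibition of AsPC-1 cells, read out with a cell viability assay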
Result: 0.324

###

Tested on: GCIY;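 also: growth inhibition of the human GCIY cell line, read out by a cell viability assay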
Assay: cells
Assay type: functional, cell-based, Homo sapiens
Recorded Conditions: Homo sapiens, GCIY
Description: SANGER: Inhibition of human GCIY cell growth in a cell viability assay.
Measure: IC50

- Compound: "N#Cc1c(O)c2c(-c3ccc(-c4ccccc4O)cc3)csc2[nH]c1=O"
  IC50: "> 1.02 µM"
- Compound: "OCCCNc1cc(-c2ccnc(Nc3cccc(Cl)c3)n2)ccn1"
  IC50: "> 0.256 µM"
- Compound: "CN(C)C(=N)NC(=N)N [METFORMIN]"
  IC50: "> 20000 µM"
- Compound: "CCC/C=C/C=C/C(=O)O[C@H]1/C(=C/C(=O)OC)C[C@H]2C[C@H]([C@@H](C)O)OC(=O)C[C@H](O)C[C@@H]3C[C@H](OC(C)=O)C(C)(C)[C@](O)(C[C@@H]4C/C(=C/C(=O)OC)C[C@H](/C=C/C(C)(C)[C@]1(O)O2)O4)O3 [BRYOSTATIN 1]"
  IC50: "> 0.008 µM"

Now consider the entry below.
Problem: Sample CC(=O)O[C@H]1C(=O)[C@@]2(C)[C@H]([C@H](OC(=O)c3ccccc3)[C@]3(O)C[C@H](OC(=O)[C@H](O)[C@@H](NC(=O)c4ccccc4)c4ccccc4)C(C)=C1C3(C)C)[C@]1(OC(C)=O)CO[C@@H]1C[C@@H]2O [PACLITAXEL] — what was its IC50?
Result: > 0.102 µM

###

System: EC-GI-10
Assay: cells
Type: functional, cell-based, Homo sapiens
Recorded Conditions: ec-gi-10
Description: SANGER: Inhibition of human EC-GI-10 cell growth in a cell viability assay.
Measure: pIC50
Scale explanation: pIC50 corresponds to minus log10 of a concentration expressed in moles per litre.

Problem: Which measured pIC50 belongs to CISPLATIN , tested on EC-GI-10?
Result: 4.88

###

Measured pIC50, listed per entry for reference.
Test system: GB-1;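 also: growth of GB-1 cells judged by a viability assay, IC50 marks the concentration inhibiting growth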
Assay: cells
Format: functional, cell-based, Homo sapiens
Recorded Conditions: Homo sapiens, GB-1
Description: SANGER: Inhibition of human GB-1 cell growth in a cell viability assay.
pIC50: −log10 of the molar value.

Worked set:
- Compound: "CN(C)C(=N)NC(=N)N"
  pIC50: "< 1.70"
- Compound: "C=C(c1ccc(C(=O)O)cc1)c1cc2c(cc1C)C(C)(C)CCC2(C)C"
  pIC50: "< 5.10"
- Compound: "CC1(C)CNc2cc(NC(=O)c3cccnc3NCc3ccncc3)ccc21"
  pIC50: "< 5.70"

Problem: Sample Cc1ccc(-c2c(C(=O)CCl)n(CCCO)c3ncnc(N)c23)cc1 — what was its pIC50?
Result: < 5.40

###

Tested on: DOHH-2
Assay: cells
Type: functional, cell-based, Homo sapiens
Recorded Conditions: Homo sapiens, DOHH-2
Description: SANGER: Inhibition of human DOHH-2 cell growth in a cell viability assay.
Measured IC50, listed per entry for reference.

- Smiles Entry: "O=C(O)c1ccc(-c2c[nH]c3ncc(-c4ccccc4)cc23)cc1C1CCCC1"
  Target System: "DOHH-2"
  IC50: "> 16000 nM"
- Smiles Entry: "Cn1cnc2c(F)c(Nc3ccc(Br)cc3Cl)c(C(=O)NOCCO)cc21"
  Target System: "DOHH-2"
  IC50: "> 4000 nM"

Now consider the entry below.
Problem: Sample CO[C@H]1C[C@@H]2CC[C@@H](C)[C@@](O)(O2)C(=O)C(=O)N2CCCC[C@H]2C(=O)O[C@H]([C@H](C)C[C@@H]2CC[C@@H](OC(=O)C(C)(CO)CO)[C@H](OC)C2)CC(=O)[C@H](C)/C=C(\C)[C@@H](O)[C@@H](OC)C(=O)[C@H](C)C[C@H](C)/C=C/C=C/C=C/1C — what was its IC50?
Result: 16.8 nM

###

Measured IC50, listed per entry for reference.
Tested on: MN-60
Assay: cells
Type: functional, cell-based, Homo sapiens
Recorded Conditions: Homo sapiens, MN-60
Description: SANGER: Inhibition of human MN-60 cell growth in a cell viability assay.

Worked set:
- Compound: "N#Cc1c(O)c2c(-c3ccc(-c4ccccc4O)cc3)csc2[nH]c1=O"
  Target System: "MN-60"
  Measure: "IC50"
  Result: "0.346 µM"
- Compound: "COc1cc(N2CCN(C)CC2)ccc1Nc1ncc2c(n1)N(C)c1ccccc1C(=O)N2C"
  Target System: "MN-60"
  Measure: "IC50"
  Result: "> 8 µM"
- Compound: "O=C(O)c1ccc(-c2c[nH]c3ncc(-c4ccccc4)cc23)cc1C1CCCC1"
  Target System: "MN-60"
  Measure: "IC50"
  Result: "> 16 µM"

Problem: Sample Nc1cccc2c1CN(C1CCC(=O)NC1=O)C2=O (stereo unspecified) [LENALIDOMIDE] — what was its IC50?
Result: > 5 µM

Problem: Sample CCN(CC)CCNC(=O)c1c(C)[nH]c(/C=C2\C(=O)Nc3ccc(F)cc32)c1C — what was its IC50?
Result: 7.54 µM

Problem: Sample COc1cc2ncn(-c3cc(OCc4ccccc4C(F)(F)F)c(C(N)=O)s3)c2cc1OC [GW843682X] — what was its IC50?
Result: > 0.256 µM

###

System: MN-60;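 also: growth inhibition of the MN-60 cell line, determined with a cell viability assay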
Assay: cells
Type: functional, cell-based, Homo sapiens
Recorded Conditions: mn-60
Measure: IC50 (µM)
Write down the numeric answer in µM and omit the unit.

Problem: Sample CISPLATIN — what was its IC50?
Result: 58.4

###

System: OVCAR-5
Assay: cells
Format: functional, cell-based, Homo sapiens
Recorded Conditions: ovcar-5
Description: SANGER: Inhibition of human OVCAR-5 cell growth in a cell viability assay.
Measure: IC50

Problem: Sample CISPLATIN — what was its IC50?
Result: 4.02 µM

###

Test system: LXF-289 cell line
Assay: cells
Format: functional, cell-based, Homo sapiens
Recorded Conditions: lxf-289
Description: SANGER: Inhibition of human LXF-289 cell growth in a cell viability assay.
Measure: IC50 (µM)
Write down the numeric answer in µM and omit the unit.

Problem: Sample BLEOMYCIN — what was its IC50?
Result: 0.644

###

Test system: KM12
Assay: cells
Type: functional, cell-based, Homo sapiens
Recorded Conditions: Homo sapiens, KM12
Description: SANGER: Inhibition of human KM12 cell growth in a cell viability assay.
Measure: IC50

- Compound: "C#Cc1cccc(Nc2ncnc3cc(OCCOC)c(OCCOC)cc23)c1"
  Result: "> 2000 nM"
- Compound: "CC(C)c1ccccc1Cc1cc(C(=O)Nc2ccc(S(=O)(=O)c3ccccc3C(C)(C)C)cc2)c(O)c(O)c1O"
  Result: "1880 nM"
- Compound: "COc1cc(N2CCN(C)CC2)ccc1Nc1ncc2c(n1)N(C)c1ccccc1C(=O)N2C"
  Result: "> 8000 nM"

Problem: Which measured IC50 belongs to Nc1cccc2c1CN(C1CCC(=O)NC1=O)C2=O (centres undefined) [LENALIDOMIDE] , tested on KM12?
Result: > 5000 nM

###

System: CAL-62
Assay: cells
Assay type: functional, cell-based, Homo sapiens
Recorded Conditions: Homo sapiens, CAL-62
Description: SANGER: Inhibition of human CAL-62 cell growth in a cell viability assay.
pIC50: −log10 of the molar value. Where a name gives a salt, the structure may show the parent alone.
Measure: pIC50

Worked set:
- Molecule: "Cc1cn(-c2cc(NC(=O)c3ccc(C)c(Nc4nccc(-c5cccnc5)n4)c3)cc(C(F)(F)F)c2)cn1 [NILOTINIB]"
  pIC50: "< 5.70"
- Molecule: "CCC/C=C/C=C/C(=O)O[C@H]1/C(=C/C(=O)OC)C[C@H]2C[C@H]([C@@H](C)O)OC(=O)C[C@H](O)C[C@@H]3C[C@H](OC(C)=O)C(C)(C)[C@](O)(C[C@@H]4C/C(=C/C(=O)OC)C[C@H](/C=C/C(C)(C)[C@]1(O)O2)O4)O3 [BRYOSTATIN 1]"
  pIC50: "< 8.10"
- Molecule: "N#Cc1c(O)c2c(-c3ccc(-c4ccccc4O)cc3)csc2[nH]c1=O"
  pIC50: "< 5.99"
- Molecule: "Oc1ccc2ccccc2c1SSc1c(O)ccc2ccccc12"
  pIC50: "< 4.49"
- Molecule: "Nc1cccc2c1CN(C1CCC(=O)NC1=O)C2=O (centres undefined) [LENALIDOMIDE]"
  pIC50: "< 5.30"
- Molecule: "COc1cccc2c1C(=O)c1c(O)c3c(c(O)c1C2=O)C[C@@](O)(C(=O)CO)C[C@@H]3O[C@H]1C[C@H](N)[C@H](O)[C@H](C)O1 [DOXORUBICIN]"
  pIC50: 7.48
- Molecule: "C=C(c1ccc(C(=O)O)cc1)c1cc2c(cc1C)C(C)(C)CCC2(C)C [BEXAROTENE]"
  pIC50: "< 5.10"
- Molecule: "COC1=CC(c2cc3ccccc3[nH]2)=N/C1=C\\c1[nH]c(C)cc1C [OBATOCLAX MESYLATE]"
  pIC50: 7.58

Now consider the entry below.
Problem: Sample COc1cc2c(Nc3ccc(NC(=O)c4ccccc4)cc3)ncnc2cc1OCCCN1CCOCC1 — what was its pIC50?
Result: < 5.40
